The proteins listed here are annotated with their Km.
# Substrate: NC(=O)C1=CN([C@@H]2O[C@H](COP(=O)(O)OP(=O)(O)OC[C@H]3O[C@@H](n4cnc5c(N)ncnc54)[C@H](OP(=O)(O)O)[C@@H]3O)[C@@H](O)[C@H]2O)C=CC1
# ASSAY_OVERVIEW: purified protein, by the assay type
Quick note: give the figure in µM, leave out the unit.

AtPORC (Arabidopsis thaliana) (protein) QTVTATPPANEASPEQKKTERKGTAVITGASSGLGLATAKALADTGKWHVIMACRNFLKAEKAARSVGMSKEDYTVMHLDLASLESVKQFVENFRRTEQPLDVLVCNAAVYQPTAKEPSFTAEGFEISVGTNHLGHFLLSRLLLDDLKKSDYPSKRMIIVGSITGNTNTLAGNVPPKANLGDLRGLASGLNGQNSSMIDGGEFDGAKAYKDSKVCNMLTMQELHRRYHEETGVTFASLYPGCIATTGLFREHIPLFRLLFPPFQKYITKGYVSEEEAGKRLAQVVSDPSLGKSGVYWSWNNNSSSFENQLSKEASDAEKAKKLWEVSEKLVGLA; 0.73

Now for a further protein.
IN: Tell me the measured Km of AtPORA (Arabidopsis thaliana) (protein) QAIATSTPSVTKSSLDRKKTLRKGNVVVTGASSGLGLATAKALAETGKWHVIMACRDFLKAERAAQSAGMPKDSYTVMHLDLASLDSVRQFVDNFRRAEMPLDVLVCNAAVYQPTANQPTFTAEGFELSVGINHLGHFLLSRLLIDDLKNSDYPSKRLIIVGSITGNTNTLAGNVPPKANLGDLRGLAGGLNGLNSSAMIDGGDFVGAKAYKDSKVCNMLTMQEFHRRFHEDTGITFASLYPGCIATTGLFREHIPLFRTLFPPFQKYITKGYVSESEAGKRLAQVVADPSLTKSGVYWSWNKTSASFENQLSQEASDVEKARRVWEVSEKLVGLA , please.
OUT: 2.47
